This section presents molecules with their documented CC50 values.
measurement.protocol: in vitro
experimental.parameters: dog
measurement.label: CC50 (µM)

CC1(C)CC2(NC(=O)c3ccccc3)C3(C)CCCC2(C)C1CC3 (stereo not shown); 141
CC(N)C12CC3CC(CC(C3)C1)C2 (stereo not shown) [Rimantadine, reference compound]; 335

Where do the numbers come from? From paper PMC8619001.
